# Assay Text: enzyme kinetic measurements with purified protein
# Type: biochemical
# Stated Conditions: relative values
Metric: Vmax Quizalofop-P
Number only, no unit.

Ask | Return value of Vmax Quizalofop-P for input MON-HT55: engineered oxygenase protein, amino acid sequence SEQ ID NO:11 (protein) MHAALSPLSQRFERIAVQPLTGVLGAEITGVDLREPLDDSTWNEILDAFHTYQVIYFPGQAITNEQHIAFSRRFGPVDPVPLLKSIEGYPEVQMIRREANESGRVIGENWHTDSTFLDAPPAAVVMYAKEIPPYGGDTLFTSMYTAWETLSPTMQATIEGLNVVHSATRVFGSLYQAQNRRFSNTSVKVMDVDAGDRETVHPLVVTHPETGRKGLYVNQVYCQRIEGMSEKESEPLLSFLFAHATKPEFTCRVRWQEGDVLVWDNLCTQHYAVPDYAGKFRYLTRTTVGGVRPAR , no commentary.
Reply | 320

Ask | Return value of Vmax Quizalofop-P for input MON-HT54: engineered oxygenase protein, amino acid sequence SEQ ID NO:9 (protein) MHAALSPLSQRFERIAVQPLTGVLGAEITGVDLREPLDDSTWNEILDAFHTYQVIYFPGQAITNEQHIAFSRRFGPVDPVPLLKSIEGYPEVQMIRREANESGRVLGDDWHTDSTFLDAPPAAVVMRAIDVPEHGGDTGFLSMYTAYDALSDGLKKLISGLNVVHSATRVFGSLYQAQNRRFSNTSVKVMDVADGDRETVHPLVVTHPGSGRKGLYVNQVYCQRIEGMSEKESEPLLSFLFAHATKPEFTCRVRWKKDQVVVWDNLCTMHYAINDYHGQTRILHRTTVGGVRPAR , no commentary.
Reply | 32
